# method.description: modulators of mitochondrial supercomplex assembly, cell-based, luminescence, Hoechst nuclei count (AID 1645838);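 further: control cybrid cells; higher means more mitochondrial supercomplex formation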
# applied.conditions: Cells, luminescence/Hoechst cell count ratio, supercomplex reporter
Hit rate of the full screen: of about 2,000 compounds, about 100 (5%) were called active. No stated cut-off is given here; in the data, active means z-score above about 2; inactive means the rest. This is one part of a sample in which actives are shown more often than they occur.
Can you answer with just one of these options? YES for active, NO for inactive

Input line: Hi team, can someone confirm the assay call for CCCC[C@@H](C)C(OC(=O)C[C@@H](CC(=O)O)C(=O)O)C(C[C@@H](C)C[C@H](O)CCCC[C@@H](O)C[C@H](O)[C@H](C)N)OC(=O)C[C@@H](CC(=O)O)C(=O)O (stereo not given in full) ?
Output line: NO

Input line: Hi team, can someone confirm the assay call for CCCCC/C=C\C/C=C\C/C=C\C/C=C\CCCC(=O)NCCc1c[nH]c2ccc(O)cc12 ?
Output line: NO

Input line: Hi team, can someone confirm the assay call for CCCCC/C=C\C/C=C\C/C=C\C/C=C\CCCC(=O)N[C@@H](C)CO ?
Output line: NO

Input line: Hi team, can someone confirm the assay call for CNCCCCCCN(C)N(O)N=O ?
Output line: NO

Input line: Hi team, can someone confirm the assay call for CCCCC/C=C\C/C=C\C/C=C\C/C=C\CCCC(=O)OCCN ?
Output line: NO

Input line: Hi team, can someone confirm the assay call for CCCCC/C=C\C/C=C\C/C=C\C/C=C\CCCC(=O)NC(CO)CO ?
Output line: YES

Input line: Hi team, can someone confirm the assay call for CCCCCCCCCCCCCCCC(=O)OC[C@H](COP(=O)([O-])OCC[N+](C)(C)C)OC(=O)CCCC=O ?
Output line: NO

Input line: Hi team, can someone confirm the assay call for CCCCC/C=C\C/C=C\C/C=C\C/C=C\CCCC(=O)N[C@H](C)CO ?
Output line: NO

Input line: Hi team, can someone confirm the assay call for c1cc2cc(N3CCNCC3)ccc2cn1 ?
Output line: NO

Input line: Hi team, can someone confirm the assay call for CCCCC/C=C\C/C=C\C/C=C\C/C=C\CCCC(=O)Nc1ccc([N+](=O)[O-])cc1 ?
Output line: NO
